Recorded values, source patent US20130079345A1.

Molecular target: CDK9/CycT1 (Homo sapiens)
Construct: Recombinant full-length His-tagged human CDK9 and CycT1; His; purchased Invitrogen PV4131; host or cells: insect cells
Sequence (P50750 whole entry): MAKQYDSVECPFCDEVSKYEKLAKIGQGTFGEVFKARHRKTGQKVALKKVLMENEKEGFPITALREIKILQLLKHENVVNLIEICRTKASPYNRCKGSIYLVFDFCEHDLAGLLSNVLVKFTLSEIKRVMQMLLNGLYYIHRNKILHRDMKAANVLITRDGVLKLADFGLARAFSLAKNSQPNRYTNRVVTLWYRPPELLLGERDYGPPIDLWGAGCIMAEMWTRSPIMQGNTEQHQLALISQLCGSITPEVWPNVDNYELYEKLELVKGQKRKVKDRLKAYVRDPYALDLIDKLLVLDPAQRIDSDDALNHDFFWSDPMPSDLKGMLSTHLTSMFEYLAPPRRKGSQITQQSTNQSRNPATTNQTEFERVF
Sequence (O60563 whole entry partner): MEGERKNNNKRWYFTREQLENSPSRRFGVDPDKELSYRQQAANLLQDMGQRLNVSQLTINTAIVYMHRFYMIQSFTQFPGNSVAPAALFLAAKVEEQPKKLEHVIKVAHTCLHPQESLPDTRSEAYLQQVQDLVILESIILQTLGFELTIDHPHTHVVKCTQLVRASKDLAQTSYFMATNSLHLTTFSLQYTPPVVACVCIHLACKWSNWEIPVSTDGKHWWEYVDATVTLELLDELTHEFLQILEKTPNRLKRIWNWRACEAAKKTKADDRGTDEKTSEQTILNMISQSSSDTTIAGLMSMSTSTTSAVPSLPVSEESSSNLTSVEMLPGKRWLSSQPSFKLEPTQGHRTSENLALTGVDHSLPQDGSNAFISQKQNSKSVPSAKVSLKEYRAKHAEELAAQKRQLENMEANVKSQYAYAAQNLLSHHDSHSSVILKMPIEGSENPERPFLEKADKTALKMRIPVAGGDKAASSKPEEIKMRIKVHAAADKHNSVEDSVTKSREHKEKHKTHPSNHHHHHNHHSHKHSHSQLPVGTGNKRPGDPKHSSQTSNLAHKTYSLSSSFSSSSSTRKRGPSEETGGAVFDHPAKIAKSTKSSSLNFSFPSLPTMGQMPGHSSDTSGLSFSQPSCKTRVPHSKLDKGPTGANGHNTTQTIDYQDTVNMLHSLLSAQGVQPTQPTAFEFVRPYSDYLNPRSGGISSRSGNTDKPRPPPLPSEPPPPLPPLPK
Assay: CDK9/CycT1 kinase assay (TR-FRET)
Format: biochemical
Settings: ATP 10 μM, values given in μM
value.kind: IC50 (µM)

Study these solved cases before continuing.
molecule	tgt	IC50 / µM
NC(=O)c1ccc(Nc2ncnc(-c3ccccc3NC(=O)c3ccccc3)n2)cc1 [Ref5, reference compound]	CDK9/CycT1 (Homo sapiens)	8.4
N#Cc1cc(F)ccc1-c1ncnc(Nc2cccc(CS(N)(=O)=O)c2)n1 [Compound U3]	CDK9/CycT1 (Homo sapiens)	3.3

[P] CC(=O)Nc1cc(F)ccc1-c1ncnc(Nc2cccc(CS(N)(=O)=O)c2)n1 [Compound U4]
[Q] NS(=O)(=O)Cc1cccc(Nc2ncnc(-c3ccc(F)cc3C(F)(F)F)n2)c1 [Compound U1]
When their IC50 values are compared, which is larger, P or Q ? Pick one; state its label.
Q
(Q: 15 µM, P: 3.6 µM)

====

Target: CDK9/Cyclin T1 (Homo sapiens, UniProt P50750)
Experiment: LanthaScreen Eu Kinase Binding Assay, CDK9/Cyclin T1
Conditions: tracer 236, read-out: Affinity (Kd) CDK9/Cyclin T1
pKd: −log10 of the molar value.
value.kind: pKd

Study these solved cases before continuing.
compound	value.kind	measured
COc1cc(F)ccc1-c1ncnc(Nc2cccc(CCS(N)(=O)=O)c2)n1 [Compound D2]	pKd	8.02
NS(=O)(=O)Cc1cccc(Nc2ncnc(-c3ccccc3Oc3ccccc3)n2)c1	pKd	7.59

[P] COc1ccccc1-c1ncnc(Nc2cccc(C(N)=O)c2)n1 [Compound E1]
[Q] CCCS(=O)(=O)Nc1cccc(Nc2ncnc(-c3ccccc3OC)n2)c1
Min pKd? P | Q Pick one; state its label.
P
(P: 6.87, Q: 7.34)

[A] COc1cnccc1-c1ncnc(Nc2cccc(CS(N)(=O)=O)c2)n1
[B] COc1ccc(C(F)(F)F)cc1-c1ncnc(Nc2cccc(CS(N)(=O)=O)c2)n1
When their pKd values are compared, which is larger, A or B ? Pick one; state its label.
A
(A: 8.15, B: 6.40)

[1] COc1ccccc1-c1ncnc(Nc2cccc(CS(N)(=O)=O)c2)n1 [Compound B1]
[2] CC(C)(C)OC(=O)NCCCCOc1ccccc1-c1ncnc(Nc2cccc(CS(N)(=O)=O)c2)n1
[3] NS(=O)(=O)Cc1cccc(Nc2ncnc(-c3ccccc3CNC3CC3)n2)c1
Rank descending by pKd. Please list the labels in the order you were asked to rank them.
1, 2, 3

====

Target: CDK4/CyclinD1 (Homo sapiens, UniProt P11802)
Sequence (P11802 whole entry): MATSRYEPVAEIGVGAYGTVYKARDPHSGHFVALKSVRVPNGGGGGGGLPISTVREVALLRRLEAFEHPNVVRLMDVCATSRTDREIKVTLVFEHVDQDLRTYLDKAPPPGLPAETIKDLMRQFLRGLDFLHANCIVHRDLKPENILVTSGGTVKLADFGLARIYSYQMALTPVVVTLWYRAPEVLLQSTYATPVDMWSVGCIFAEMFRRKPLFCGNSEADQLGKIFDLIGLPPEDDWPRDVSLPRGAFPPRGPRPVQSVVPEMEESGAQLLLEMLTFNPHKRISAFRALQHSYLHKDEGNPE
Sequence (P24385 whole entry partner): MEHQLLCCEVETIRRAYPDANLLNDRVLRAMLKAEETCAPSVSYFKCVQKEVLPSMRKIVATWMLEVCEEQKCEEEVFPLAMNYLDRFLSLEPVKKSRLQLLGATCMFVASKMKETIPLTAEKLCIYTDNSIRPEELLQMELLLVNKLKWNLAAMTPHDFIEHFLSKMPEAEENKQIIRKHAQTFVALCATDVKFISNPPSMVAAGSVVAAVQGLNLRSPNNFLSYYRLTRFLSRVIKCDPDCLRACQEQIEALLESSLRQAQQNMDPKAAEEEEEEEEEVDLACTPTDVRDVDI
Assay: Lance Ultra KinaSelect Assay, CDK4
Conditions: ATP 90 μM, read-out: Inhibition (IC50) CDK4
pIC50: −log10 of the molar value. Where a name gives a salt, the structure may show the parent alone.
value.kind: pIC50

compound	measured
COc1ccccc1-c1ncnc(Nc2cccc(CCS(N)(=O)=O)c2)n1 [Compound D1]	5.03
NS(=O)(=O)Cc1cccc(Nc2ncnc(-c3ccccc3OCc3ccccc3)n2)c1 [B13′, trifluoroacetic acid salt]	6.17

[I] COc1cc(F)ccc1-c1ncnc(Nc2cccc(CS(N)(=O)=O)c2)n1 [B2″, trifluoroacetic acid salt]
[II] COc1ccccc1-c1ncnc(Nc2cccc(S(N)(=O)=O)c2)n1 [C1′, trifluoroacetic acid salt]
Min pIC50? I | II Pick one; state its label.
I

====

Target: CDK7/CyclinH/Mat1 (Homo sapiens)
Sequence (P50613 whole entry): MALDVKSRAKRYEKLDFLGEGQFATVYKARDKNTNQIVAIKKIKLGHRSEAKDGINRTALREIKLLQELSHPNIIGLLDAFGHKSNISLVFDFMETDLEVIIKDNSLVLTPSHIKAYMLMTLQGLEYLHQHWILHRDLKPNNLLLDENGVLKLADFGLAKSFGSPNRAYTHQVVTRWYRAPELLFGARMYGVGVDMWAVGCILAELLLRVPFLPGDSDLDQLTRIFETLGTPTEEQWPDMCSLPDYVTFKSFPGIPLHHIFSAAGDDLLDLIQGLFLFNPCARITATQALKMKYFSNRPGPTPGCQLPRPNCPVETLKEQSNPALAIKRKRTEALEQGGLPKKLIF
Sequence (P51946 whole entry partner): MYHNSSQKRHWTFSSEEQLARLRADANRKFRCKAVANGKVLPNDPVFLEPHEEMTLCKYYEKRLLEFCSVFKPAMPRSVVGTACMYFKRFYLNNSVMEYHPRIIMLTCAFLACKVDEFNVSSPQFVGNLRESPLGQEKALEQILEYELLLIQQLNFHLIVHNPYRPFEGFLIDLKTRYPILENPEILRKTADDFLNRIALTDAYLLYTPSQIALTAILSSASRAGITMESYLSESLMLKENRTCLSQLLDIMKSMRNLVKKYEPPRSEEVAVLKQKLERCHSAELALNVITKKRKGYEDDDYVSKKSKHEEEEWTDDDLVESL
Sequence (P51948 whole entry partner): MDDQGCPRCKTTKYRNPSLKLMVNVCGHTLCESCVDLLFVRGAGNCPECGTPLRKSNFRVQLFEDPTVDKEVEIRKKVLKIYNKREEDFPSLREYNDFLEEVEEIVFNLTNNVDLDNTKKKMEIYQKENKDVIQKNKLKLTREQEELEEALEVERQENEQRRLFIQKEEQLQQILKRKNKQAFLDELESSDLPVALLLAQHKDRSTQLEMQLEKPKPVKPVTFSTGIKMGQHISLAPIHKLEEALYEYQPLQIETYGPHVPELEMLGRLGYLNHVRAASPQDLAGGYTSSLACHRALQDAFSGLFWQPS
Experiment: LanthaScreen Eu Kinase Binding Assay, CDK7
Conditions: tracer 236, read-out: Affinity (Kd) CDK7
pKd: −log10 of the molar value.
value.kind: pKd

Study these solved cases before continuing.
molecule	pKd
COc1ccccc1-c1ncnc(Nc2cccc(NC(C)=O)c2)n1 [Compound M1]	< 4.52
CCCS(=O)(=O)Nc1cccc(Nc2ncnc(-c3ccccc3OC)n2)c1 [Compound L1]	< 4.52
NS(=O)(=O)Cc1cccc(Nc2ncnc(-c3ccccc3Oc3ccccc3)n2)c1 [Compound B14]	< 5.00
COc1ccccc1-c1ncnc(Nc2cccc(NS(C)(=O)=O)c2)n1 [Compound K1]	< 4.52
COc1cnccc1-c1ncnc(Nc2cccc(CS(N)(=O)=O)c2)n1 [Compound B19]	< 5.00
COc1ccc(Cl)cc1-c1ncnc(Nc2cccc(CS(N)(=O)=O)c2)n1 [Compound B7]	< 5.00

Name the recorded pKd of the molecule listed here: COc1cc(F)ccc1-c1ncnc(Nc2cccc(CS(N)(=O)=O)c2)n1 [Compound B2]
< 5.00

Name the recorded pKd of the molecule listed here: COc1cc(Cl)ccc1-c1ncnc(Nc2cccc(CS(N)(=O)=O)c2)n1 [Compound B6]
< 5.00

Name the recorded pKd of the molecule listed here: CNCc1ccc(OC)c(-c2ncnc(Nc3cccc(CS(N)(=O)=O)c3)n2)c1 [Compound O1]
< 4.52

====

Target: CDK1/CyclinB1 (Homo sapiens)
Sequence (P06493 whole entry): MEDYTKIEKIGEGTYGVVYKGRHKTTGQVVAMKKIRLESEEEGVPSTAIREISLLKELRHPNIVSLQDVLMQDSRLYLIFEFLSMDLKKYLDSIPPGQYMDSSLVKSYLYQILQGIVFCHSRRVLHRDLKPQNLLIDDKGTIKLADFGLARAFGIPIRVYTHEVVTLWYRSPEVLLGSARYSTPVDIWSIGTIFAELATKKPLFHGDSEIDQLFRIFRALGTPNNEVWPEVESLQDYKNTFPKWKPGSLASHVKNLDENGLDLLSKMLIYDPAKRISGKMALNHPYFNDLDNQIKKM
Sequence (P14635 whole entry partner): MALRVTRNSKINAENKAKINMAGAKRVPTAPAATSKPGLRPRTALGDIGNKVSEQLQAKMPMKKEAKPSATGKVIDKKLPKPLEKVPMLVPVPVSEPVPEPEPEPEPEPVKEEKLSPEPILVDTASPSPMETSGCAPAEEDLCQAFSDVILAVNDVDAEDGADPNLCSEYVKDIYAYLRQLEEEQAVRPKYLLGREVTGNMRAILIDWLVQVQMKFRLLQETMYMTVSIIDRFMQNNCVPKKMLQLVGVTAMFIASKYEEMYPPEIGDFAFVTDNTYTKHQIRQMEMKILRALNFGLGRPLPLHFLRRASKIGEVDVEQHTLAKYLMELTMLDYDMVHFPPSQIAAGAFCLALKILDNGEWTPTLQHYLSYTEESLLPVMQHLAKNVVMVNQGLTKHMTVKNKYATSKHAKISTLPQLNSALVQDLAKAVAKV
Assay: Lance Ultra KinaSelect Assay, CDK1
Settings: ATP 20 μM, read-out: Inhibition (IC50) CDK1
Where a name gives a salt, the structure may show the parent alone.
value.kind: IC50 (µM)

[1] COc1cccc(F)c1-c1ncnc(Nc2cccc(CS(N)(=O)=O)c2)n1
[2] COc1ccccc1-c1ncnc(Nc2cccc(CS(N)(=O)=O)c2)n1 [B1′, trifluoroacetic acid salt]
[3] COc1ccccc1-c1ncnc(Nc2cccc(S(N)(=O)=O)c2)n1 [C1′, trifluoroacetic acid salt]
From the items above, give an ordering by IC50 that starts at the lowest reported number. Please list the labels in the order you were asked to rank them.
3, 1, 2

====

Target: CDK9/Cyclin T1 (Homo sapiens, UniProt P50750)
Experiment: LanthaScreen Eu Kinase Binding Assay, CDK9/Cyclin T1
Conditions: tracer 236, read-out: Affinity (Kd) CDK9/Cyclin T1
pKd: −log10 of the molar value. Structures can show the parent of a compound that is named as a salt.
value.kind: pKd

Study these solved cases before continuing.
molecule	tgt	pKd
NCCCCOc1ccccc1-c1ncnc(Nc2cccc(CS(N)(=O)=O)c2)n1	CDK9/Cyclin T1 (Homo sapiens, UniProt P50750)	7.00
COc1ccccc1-c1ncnc(Nc2cccc([N+](=O)[O-])c2)n1	CDK9/Cyclin T1 (Homo sapiens, UniProt P50750)	7.75

[I] CNCc1ccc(OC)c(-c2ncnc(Nc3cccc(CS(N)(=O)=O)c3)n2)c1
[II] COc1cc(F)ccc1-c1ncnc(Nc2cccc(CS(N)(=O)=O)c2)n1 [B2′, hydrochloride]
Min pKd? I | II Pick one; state its label.
I
(I: 5.27, II: 8.25)

[A] COc1cccc(F)c1-c1ncnc(Nc2cccc(CS(N)(=O)=O)c2)n1
[B] COc1cc(F)ccc1-c1ncnc(Nc2cccc(CS(N)(=O)=O)c2)n1 [B2″, trifluoroacetic acid salt]
When their pKd values are compared, which is larger, A or B ? Pick one; state its label.
B

====

Test system: LPS-induced TNF alpha release in PBMCs
Assay: TNF alpha release assay
Assay type: cell-based
Settings: Homo sapiens, PBMC, 6 h, 1 μg/mL LPS
Structures can show the parent of a compound that is named as a salt.
value.kind: IC50 (nM)
Answer format: numeric, nM implied, no suffix.

Study these solved cases before continuing.
molecule	value.units	measured
CCCS(=O)(=O)Nc1cccc(Nc2ncnc(-c3ccccc3OC)n2)c1 [Compound L1]	nM	2410
COc1ccccc1-c1ncnc(Nc2cccc(S(N)(=O)=O)c2)n1 [C1′, trifluoroacetic acid salt]	nM	500
COc1cccc(F)c1-c1ncnc(Nc2cccc(CS(N)(=O)=O)c2)n1 [Compound B4]	nM	6530

Name the recorded IC50 of the molecule listed here: COc1ccccc1-c1ncnc(Nc2cccc(NS(C)(=O)=O)c2)n1 [Compound K1]
4420

Name the recorded IC50 of the molecule listed here: COc1ccccc1-c1ncnc(Nc2cccc([N+](=O)[O-])c2)n1 [Compound H1]
2920

====

Tested on: H460 cells
Experiment: Cell viability, H460 cells
Assay type: cell-based, human
Conditions: hydrochloride
Where a name gives a salt, the structure may show the parent alone.
value.kind: pIC50
Conceptually, pIC50 converts a concentration in mol/L into minus its log10.

Name the recorded pIC50 of the compound listed here: COc1cc(F)ccc1-c1ncnc(Nc2cccc(CS(N)(=O)=O)c2)n1 [B2′, hydrochloride]
5.82

====

Parameter: IC50. Scope: all listed entries.
Tested on: NF-kappaB reporter gene activation in HEK293 cells
Assay: NF-kappaB reporter assay
Type: cell-based
Conditions: Homo sapiens, 20 ng/ml TNF alpha, 5 h
Procedure: Cells were maintained in RPMI cell culture medium+glutamine (PAN Biotech GmbH, Aidenbach, Germany) supplemented with 10% fetal calf serum (PAA Laboratories GmbH, Pasching, Austria) and grown at 37° C., 5% CO2. […] Luminescence was measured with a Victor Photospectrometer (Perkin Elmer, Waltham, Mass., USA). […], values were calculated with the software Excel Fit (IDBS, Guildford, UK) from 2-fold dilution series comprising at least 10 concentrations in duplicates.
Counter-ions that a name gives are not always drawn.
Answer format: numeric, µM implied, no suffix.

Study these solved cases before continuing.
compound	measured
NS(=O)(=O)Cc1cccc(Nc2ncnc(-c3ccccc3OCc3ccccc3)n2)c1 [B13′, trifluoroacetic acid salt]	0.36
COc1ccccc1-c1ncnc(Nc2cccc(NC(=O)Nc3ccccc3)c2)n1	18.4
COc1cc(F)ccc1-c1ncnc(Nc2cccc(CCS(N)(=O)=O)c2)n1 [Compound D2]	1.63

Field: next compound
Name the recorded IC50 of the compound listed here: COc1ccccc1-c1ncnc(Nc2ccccc2)n1 [Compound P1]
18.8
